Experiment: Inhibition of HCV NS4A tagged recombinant single chain NS3 protease after 15 mins
Parameters: species or system Hepacivirus hominis
parameter_measured: Ki (nM)

compound	units_text	reported_value
CC(C)(C)[C@H](NC(=O)NC1(Cc2cccnc2)CCCCC1)C(=O)N1C[C@H]2[C@@H]([C@H]1C(=O)NC(CC1CC1)C(=O)C(N)=O)C2(C)C (stereo partly drawn)	nM	25

1: Cc1cc(S(=O)(=O)CC2(NC(=O)N[C@H](C(=O)N3C[C@H]4[C@@H]([C@H]3C(=O)NC(CC3CC3)C(=O)C(N)=O)C4(C)C)C(C)(C)C)CCCCC2)co1 (stereo partly drawn)
2: CC(C)(C)[C@H](NC(=O)NC1(Cc2ccncc2)CCCCC1)C(=O)N1C[C@H]2[C@@H]([C@H]1C(=O)NC(CC1CC1)C(=O)C(N)=O)C2(C)C (stereo partly drawn)
Between the entries labelled 1 and 2 , which has a larger Ki value on record? Respond with the label that goes with your answer.
2
(2: 39 nM, 1: 10 nM)

###

Assay: Inhibition of HCV NS4A tagged recombinant single chain NS3 protease after 15 mins
Parameters: species or system Hepacivirus hominis
parameter_measured: Ki (µM)

P: CC(c1ccccc1)C1(NC(=O)N[C@H](C(=O)N2C[C@H]3[C@@H]([C@H]2C(=O)NC(CC2CC2)C(=O)C(N)=O)C3(C)C)C(C)(C)C)CCCCC1 (some centres not stated)
Q: CCCC(NC(=O)[C@@H]1[C@@H]2[C@H](CN1C(=O)[C@@H](NC(=O)NC(C)(C)C)C1CCCCC1)C2(C)C)C(=O)C(N)=O (some centres not stated)
API: POST /compare with P and Q ; response names the item with higher Ki. # respond with the chosen item's label
Q

I: CC1(NC(=O)N[C@H](C(=O)N2C[C@H]3[C@@H]([C@H]2C(=O)NC(CC2CC2)C(=O)C(N)=O)C3(C)C)C(C)(C)C)CCCCCC1 (some centres not stated)
II: CC(C)(C)[C@H](NC(=O)NC1(C(=O)c2ccccc2)CCCCC1)C(=O)N1C[C@H]2[C@@H]([C@H]1C(=O)NC(CC1CC1)C(=O)C(N)=O)C2(C)C (some centres not stated)
III: CC(C)(C)[C@H](NC(=O)NC1(CS(=O)(=O)C(C)(C)C)CCCCC1)C(=O)N1C[C@H]2[C@@H]([C@H]1C(=O)NC(CC1CCC1)C(=O)C(N)=O)C2(C)C (some centres not stated)
IV: CC(C)(C)[C@H](NC(=O)NC1(Cc2cccc(O)c2)CCCCC1)C(=O)N1C[C@H]2[C@@H]([C@H]1C(=O)NC(CC1CC1)C(=O)C(N)=O)C2(C)C (some centres not stated)
V: C=CCNC(=O)C(=O)C(CCC)NC(=O)[C@@H]1[C@@H]2[C@H](CN1C(=O)[C@@H](NC(=O)NC(C)(C)C)C1CCCCC1)C2(C)C (some centres not stated)
# rank by Ki, ascending (min first) Submit the labels in the order that the ranking request calls for.
III, IV, I, II, V

1: CC(C)(C)[C@H](NC(=O)NC1(CO)CCCC1)C(=O)N1C[C@H]2[C@@H]([C@H]1C(=O)NC(CC1CC1)C(=O)C(N)=O)C2(C)C (some centres not stated)
2: CC(C)(C)[C@H](NC(=O)NC1(CS(=O)(=O)Cc2ccco2)CCCCC1)C(=O)N1C[C@H]2[C@@H]([C@H]1C(=O)NC(CC1CC1)C(=O)C(N)=O)C2(C)C (some centres not stated)
Parameter check: reported Ki is higher for which label, 1 or 2 ? Identify your pick by its label.
1
(1: 0.015 µM, 2: 0.004 µM)
